assay: in vitro; format: cell-based; conditions: MTT; read-out: LC50 lethal concentration on human monocyte-derived macrophages (hMDMD)
RECORDED METRIC: CC50

Measured CC50, O=C(Cn1ccnc1[N+](=O)[O-])NCc1ccccc1 : > 200 µg/mL

---

test system: T. cruzi amastigote; test: In vitro antitrypanosomal activity, amastigotes in U937 macrophages (β-galactosidase Tulahuen strain); format: cell-based; details: Trypanosoma cruzi, U-937; infected U937 macrophages, 72 h; mean ± SD; read-out: IC50 inhibitory concentration of T. cruzi amastigote
RECORDED METRIC: IC50 (µM)
# unit: µM | format: bare number

Measured IC50, O=C(Cn1ccnc1[N+](=O)[O-])NCc1ccccc1 : 16.6

---

experiment: in vitro; format: cell-based; conditions: MTT; mean ± SD; read-out: LC50 lethal concentration on human monocyte-derived macrophages (hMDMD)
RECORDED METRIC: CC50 (µM)
# unit: µM | format: bare number

Measured CC50, COc1cccc2c1C(=O)c1c(O)c3c(c(O)c1C2=O)C[C@@](O)(C(=O)CO)C[C@@H]3O[C@H]1C[C@H](N)[C@H](O)[C@H](C)O1 [Doxorrubicin, Doxorubicin] : 3.91

Measured CC50, C[C@@H]1[C@H](O)[C@@H](C)/C=C/C=C/C=C/C=C/C=C/C=C/C=C/[C@H](O[C@@H]2O[C@H](C)[C@@H](O)[C@H](N)[C@@H]2O)C[C@@H]2O[C@](O)(C[C@@H](O)C[C@@H](O)[C@H](O)CC[C@@H](O)C[C@@H](O)CC(=O)O[C@H]1C)C[C@H](O)[C@H]2C(=O)O [Amphotericin B] : 49.8
